# experimentalSystem: Histone deacetylase 7 (Homo sapiens)
# Sequence (Q8WUI4 whole entry): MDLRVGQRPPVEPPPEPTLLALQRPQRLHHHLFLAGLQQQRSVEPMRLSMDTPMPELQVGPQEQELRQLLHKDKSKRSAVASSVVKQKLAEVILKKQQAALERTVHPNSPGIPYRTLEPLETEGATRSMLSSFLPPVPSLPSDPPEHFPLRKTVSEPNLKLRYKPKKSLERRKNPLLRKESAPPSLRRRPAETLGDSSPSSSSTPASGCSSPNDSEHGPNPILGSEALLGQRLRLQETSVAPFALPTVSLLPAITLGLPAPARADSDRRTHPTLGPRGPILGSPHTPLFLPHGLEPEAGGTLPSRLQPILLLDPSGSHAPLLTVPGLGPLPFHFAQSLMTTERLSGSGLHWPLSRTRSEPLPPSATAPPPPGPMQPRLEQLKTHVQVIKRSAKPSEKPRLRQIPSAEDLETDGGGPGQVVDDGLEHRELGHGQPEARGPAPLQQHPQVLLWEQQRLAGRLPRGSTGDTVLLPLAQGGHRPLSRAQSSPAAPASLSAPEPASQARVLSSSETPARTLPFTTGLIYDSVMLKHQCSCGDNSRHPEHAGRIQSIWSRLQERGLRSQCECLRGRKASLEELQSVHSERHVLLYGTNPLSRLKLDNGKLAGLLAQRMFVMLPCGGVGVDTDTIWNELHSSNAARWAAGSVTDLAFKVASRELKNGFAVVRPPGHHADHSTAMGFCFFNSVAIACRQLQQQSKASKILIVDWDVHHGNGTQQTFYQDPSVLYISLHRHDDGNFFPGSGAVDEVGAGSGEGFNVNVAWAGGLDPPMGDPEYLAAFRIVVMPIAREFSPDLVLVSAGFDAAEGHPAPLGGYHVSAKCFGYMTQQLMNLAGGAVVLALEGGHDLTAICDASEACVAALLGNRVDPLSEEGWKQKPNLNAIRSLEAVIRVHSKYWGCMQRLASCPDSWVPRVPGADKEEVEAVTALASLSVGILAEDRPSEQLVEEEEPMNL
property: IC50 (µM)
Answer with a number only, understood to be in µM.

Answer with reported IC50 of `O=C(/C=C/c1cccc(C(=O)NO)c1)Nc1ccccc1`
8.4
